Ref: patent US20170114420

Test system: Norovirus GII.7 VLP, capsid protein VP1 (Norovirus GII.7)
assayNotes: ELONA
conditions: 1 uM aptamer, RT
Measured binding signal by item
Report as: number unit

Some sequences with known binding signal results, for comparison:
> print(dat)
                            polymersequence                             targetofassay    endpointname    readoutvalue
1  AGTATACGTATTACCTGCAGCTGACCGAGTGTCTGGTCATTTTCGATGTCTGTTGTTAGGCCGATATCTCGGAGATCTTGC [SMV-26]  Norovirus GII.7 VLP, capsid protein VP1 (Norovirus GII.7)  binding signal   2.8 T/N ratio
2  AGTATACGTATTACCTGCAGCCATCTGTGTGAAGACTATATGGCGCTCACATATTTCTTTCCGATATCTCGGAGATCTTGC [SMV-25]  Norovirus GII.7 VLP, capsid protein VP1 (Norovirus GII.7)  binding signal   9.1 T/N ratio
3  AGTATACGTATTACCTGCAGCCCATGTTTTGTAGGTGTAATAGGTCATGTTAGGGTTTCTGCGATATCTCGGAGATCTTGC [SMV-21]  Norovirus GII.7 VLP, capsid protein VP1 (Norovirus GII.7)  binding signal  13.5 T/N ratio

Read the next record carefully.
May I ask what binding signal has been recorded for AGTATACGTATTACCTGCAGCCACCAGTGTGTTGAGGTTTGAGCACACTGATAGAGTGTCACGATATCTCGGAGATCTTGC [SMV-19] ?
4 T/N ratio

----------
Test system: Norovirus GII.12 VLP, capsid protein VP1 (Norovirus GII.12)
assayNotes: ELONA
conditions: 1 uM aptamer, RT
endpointName: binding signal

Some sequences with known binding signal results, for comparison:
> print(dat)
                            polymersequence   readoutvalue
1  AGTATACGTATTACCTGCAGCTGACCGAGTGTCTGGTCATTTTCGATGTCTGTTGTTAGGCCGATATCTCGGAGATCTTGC [SMV-26]  2.4 T/N ratio
2  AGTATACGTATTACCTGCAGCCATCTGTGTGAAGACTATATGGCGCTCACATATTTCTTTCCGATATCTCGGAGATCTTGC [SMV-25]  1.9 T/N ratio
3  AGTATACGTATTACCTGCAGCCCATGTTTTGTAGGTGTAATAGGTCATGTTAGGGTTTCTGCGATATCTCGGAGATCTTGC [SMV-21]  6.6 T/N ratio

Read the next record carefully.
Query the reported binding signal for Norovirus GII.12 VLP, capsid protein VP1 (Norovirus GII.12); item: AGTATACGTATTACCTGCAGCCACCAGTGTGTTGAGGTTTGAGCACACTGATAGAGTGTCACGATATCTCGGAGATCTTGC [SMV-19]
1.5 T/N ratio

----------
Tested on: Norovirus GI.7 VLP, capsid protein VP1 (Norovirus GI.7)
assayNotes: ELONA
conditions: 1 uM aptamer, RT
Measured binding signal by item
Give the value in T/N ratio but do not write T/N ratio after it.

Some sequences with known binding signal results, for comparison:
> print(dat)
                            polymersequence                             targetofassay    endpointname  readoutvalue
1  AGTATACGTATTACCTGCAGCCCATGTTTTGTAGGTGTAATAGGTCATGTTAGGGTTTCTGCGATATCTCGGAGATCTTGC [SMV-21]  Norovirus GI.7 VLP, capsid protein VP1 (Norovirus GI.7)  binding signal           8.1
2  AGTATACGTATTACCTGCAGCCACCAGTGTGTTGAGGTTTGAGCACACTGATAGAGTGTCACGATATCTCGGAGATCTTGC [SMV-19]  Norovirus GI.7 VLP, capsid protein VP1 (Norovirus GI.7)  binding signal          10.3
3  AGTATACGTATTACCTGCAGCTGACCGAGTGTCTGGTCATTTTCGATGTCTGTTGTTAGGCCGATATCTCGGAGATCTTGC [SMV-26]  Norovirus GI.7 VLP, capsid protein VP1 (Norovirus GI.7)  binding signal           1.8

Read the next record carefully.
May I ask what binding signal has been recorded for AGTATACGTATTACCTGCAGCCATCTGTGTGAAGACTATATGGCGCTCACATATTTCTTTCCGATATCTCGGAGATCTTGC [SMV-25] ?
3.5
